Reported cytotoxicity at 70.5 h values for the following compounds.
# Assay comment: Human HepG2 cell viability assay in 384 well format
# Type: toxicity, cell-based
# Design: dose 125 nL, time 70.5 hour; concentration not given beside the values
# Measurement setup: HepG2 cells, read-out: Inhibition
Entry rule: numbers only, all in %.

Known cytotoxicity at 70.5 h results, listed for orientation:
Compound: CSc1nccn1-c1cccc(C(=O)NCCCN2CCOCC2)c1
Readout type: cytotoxicity at 70.5 h
Value unit: %
Endpoint result: 1.7

Compound: COc1c(CNCc2cccc(CN3CCOCC3)c2)c(C)nn1C
Readout type: cytotoxicity at 70.5 h
Value unit: %
Endpoint result: -10.7

Compound: CCCS(=O)(=O)N1CCC(n2nc(-c3cc(C)oc3C)ccc2=O)CC1
Readout type: cytotoxicity at 70.5 h
Value unit: %
Endpoint result: 8.97

Compound: Cn1ccnc1CN1C[C@@H](F)[C@@H](OCc2nc3cnccc3[nH]2)C1
Readout type: cytotoxicity at 70.5 h
Value unit: %
Endpoint result: 13.1

Compound: COc1ccc(Cl)cc1CNCCCn1ccnc1
Readout type: cytotoxicity at 70.5 h
Value unit: %
Endpoint result: -2.31

Which cytotoxicity at 70.5 h is listed for COc1ccc2[nH]cc(-c3ccnc(N4CCC(C)CC4)n3)c2c1 ?
1.51

Request the reported cytotoxicity at 70.5 h associated with COCCNC(=O)NCC(C)c1ccccc1OC (centres undefined)
-8.45

What does the data say about its cytotoxicity at 70.5 h? Entry: CCc1ccc(N2CCC(NS(=O)(=O)N(CC)CC)CC2)cc1
-5.14

// lookup cytotoxicity at 70.5 h for COc1ccc(CCNc2cc(-c3nc(C)no3)ccn2)cc1OC
-3.44

I am curious: what cytotoxicity at 70.5 h value has been reported for Cc1nnc(CN(C)C2CCN(c3cccc(-c4cscn4)c3)CC2)o1 ?
-3.22

Given Clc1cccc(C(CNc2ncccn2)N2CCOCC2)c1 (centres undefined) , state its recorded cytotoxicity at 70.5 h.
-5.68

Entry under review: Cc1nn(C)cc1NC(=O)CC1CCN(CCc2ccccc2)CC1 . Reported cytotoxicity at 70.5 h?
-7.48

Which cytotoxicity at 70.5 h is reported for this compound? COc1ccc(SC(C)C(=O)N2CCC(NC(=O)C3CC3)CC2)cc1 (centres undefined)
8.09
